# Ratio IC50 to 056-53.H4E IC50 listing for each entry below
Molecular target: T1, recombinant human IL-23R/Fc chimera (R&D Systems) (human, UniProt Q5VWK5 24-353)
T1 construct: bought; also called human IL-23R/Fc fusion protein; rhIL23RFc
T1 sequence (looked up): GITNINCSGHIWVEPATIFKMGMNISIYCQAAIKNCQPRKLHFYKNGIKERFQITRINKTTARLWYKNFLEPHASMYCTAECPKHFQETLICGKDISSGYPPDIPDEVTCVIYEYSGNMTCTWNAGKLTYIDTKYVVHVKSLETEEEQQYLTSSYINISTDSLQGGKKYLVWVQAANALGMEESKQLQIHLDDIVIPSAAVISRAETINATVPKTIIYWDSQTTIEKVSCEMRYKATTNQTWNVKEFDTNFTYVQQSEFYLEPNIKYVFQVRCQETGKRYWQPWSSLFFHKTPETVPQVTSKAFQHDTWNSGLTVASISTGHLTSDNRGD
Test: competition ELISA against IL-23
Method: Assays were performed generally as follows. Individual wells in Immulon HB2 plates were incubated overnight at 4° C. with 100 μL PBS containing 100 ng of an anti-human IgG Fc (R&D MAB 110 clone 97924). Plates were washed five times with PBS/0.05% Tween 20, and wells were incubated for 1.5 h at RT with 100 μL each of PBS containing 50 ng of recombinant human IL-23R/Fc. […] Competitor was included at a final concentration of 1 μg/mL. […]
Kindly provide the numeric value in ratio only, without the unit symbol.

Known Ratio IC50 to 056-53.H4E IC50 results, listed for orientation:
binder: 105-08-1G12 ATRIMER (designed binder) EPPTQKPKKIVNAKKDVVNTKMFEELKSRLDTLAQEVALLKEQQALQTVCLKGTKVHMKCFLAFTQTKTFHEASEDCISRGGTLSTPQTGSENDALYEYLRQSVGNEAEIWLGLNGSLRTGTWVDMTGARIAYKNWETEITAQPDGGWGYFGENCAVLSGAANGKWFDKRCRDQLPYICQFGIV
Ratio IC50 to 056-53.H4E IC50 [ratio]: 13.2
--
binder: 105-08-2C10 ATRIMER (designed binder, not shown: C-terminal purification tag: Myc/His6 (pANA4) or HA-StrepII (pANA10)) EPPTQKPKKIVNAKKDVVNTKMFEELKSRLDTLAQEVALLKEQQALQTVCLKGTKVHMKCFLAFTQTKTFHEASEDCISRGGTLSTPQTGSENDALYEYLRQSVGNEAEIWLGLNGSLLTDTWVDMTGARIAYKNWETEITAQPDGGFGVFGENCAVLSGAANGKWFDKRCRDQLPYICQFGIV
Ratio IC50 to 056-53.H4E IC50 [ratio]: 0.9
--
binder: 105-08-2G2 ATRIMER (designed binder) EPPTQKPKKIVNAKKDVVNTKMFEELKSRLDTLAQEVALLKEQQALQTVCLKGTKVHMKCFLAFTQTKTFHEASEDCISRGGTLSTPQTGSENDALYEYLRQSVGNEAEIWLGLNGSAITDTWVDMTGARIAYKNWETEITAQPDGGWGYFGENCAVLSGAANGKWFDKRCRDQLPYICQFGIV
Ratio IC50 to 056-53.H4E IC50 [ratio]: 3.8
--
binder: 101-54-4A12 ATRIMER (designed binder) EPPTQKPKKIVNAKKDVVNTKMFEELKSRLDTLAQEVALLKEQQALQTVCLKGTKVHMKCFLAFTQTKTFHEASEDCISRGGTLSTPQTGSENDALYEYLRQSVGNEAEIWLGLNGSRRSGVWVDMTGARIAYKNWEPPGPAHPQGGFGVFGENCAVLSGAANGKWFDKRCRDQLPYICQFGIV
Ratio IC50 to 056-53.H4E IC50 [ratio]: 1.1
--
binder: 105-08-2D2 ATRIMER (designed binder, Forms a homotrimer (ATRIMER) through the tetranectin coiled coil; one protomer is given., not shown: C-terminal tag) EPPTQKPKKIVNAKKDVVNTKMFEELKSRLDTLAQEVALLKEQQALQTVCLKGTKVHMKCFLAFTQTKTFHEASEDCISRGGTLSTPQTGSENDALYEYLRQSVGNEAEIWLGLNGSARTGTWVDMTGARIAYKNWETEITAQPDGGFGYFGENCAVLSGAANGKWFDKRCRDQLPYICQFGIV
Ratio IC50 to 056-53.H4E IC50 [ratio]: 4.1

GET /value?item= 105-20-2G5 ATRIMER (designed binder, not shown: C-terminal tag: His/Myc (pANA4) or HA-StrepII (pANA10)) EPPTQKPKKIVNAKKDVVNTKMFEELKSRLDTLAQEVALLKEQQALQTVCLKGTKVHMKCFLAFTQTKTFHEASEDCISRGGTLSTPQTGSENDALYEYLRQSVGNEAEIWLGLNGSRRTDTWVDMTGARIAYKNWETEITAQPDGGWGYFGENCAVLSGAANGKWFDKRCRDQLPYICQFGIV &field=Ratio IC50 to 056-53.H4E IC50 returns 5.3

Reported Ratio IC50 to 056-53.H4E IC50 for 105-08-1A3 ATRIMER (designed binder, not shown: C-terminal tag: Myc/His6 (pANA4) or HA-StrepII (pANA10); A Ser left at the ompA junction may also sit at the N-terminus) EPPTQKPKKIVNAKKDVVNTKMFEELKSRLDTLAQEVALLKEQQALQTVCLKGTKVHMKCFLAFTQTKTFHEASEDCISRGGTLSTPQTGSENDALYEYLRQSVGNEAEIWLGLNGSPRTDTWVDMTGARIAYKNWETEITAQPDGGWGVFGENCAVLSGAANGKWFDKRCRDQLPYICQFGIV was 1.1

// sample 101-51-1A9 ATRIMER (designed binder, ATRIMER is a homotrimer; one protomer is given., not shown: C-terminal purification tag: Myc/His6 (pANA4) or HA-StrepII (pANA10)) EPPTQKPKKIVNAKKDVVNTKMFEELKSRLDTLAQEVALLKEQQALQTVCLKGTKVHMKCFLAFTQTKTFHEASEDCISRGGTLSTPQTGSENDALYEYLRQSVGNEAEIWLGLNGSALTNTWVDMTGARIAYKNWEPARQPQPGGGFGYFGENCAVLSGAANGKWFDKRCRDQLPYICQFGIV , its Ratio IC50 to 056-53.H4E IC50 was 2.2

Ratio IC50 to 056-53.H4E IC50 reported for this binder 105-08-2E12 ATRIMER (designed binder) EPPTQKPKKIVNAKKDVVNTKMFEELKSRLDTLAQEVALLKEQQALQTVCLKGTKVHMKCFLAFTQTKTFHEASEDCISRGGTLSTPQTGSENDALYEYLRQSVGNEAEIWLGLNGSGLTDTWVDMTGARIAYKNWETEITAQPDGGWGYFGENCAVLSGAANGKWFDKRCRDQLPYICQFGIV : 9.1
